target: TLR8 (Homo sapiens); construct: Human peripheral blood mononuclear cells (PBMCs) consist of lymphocytes, monocytes and dendritic cells that express TLR7, TLR8 and TLR9; endogenous in cells; test: TLR8 human PBMC cell-based assay (antagonist, Compound A stimulated cytokine release); conditions: human PBMCs; TLR8 agonist Compound A 800 nM, 6 hours; cytokines (TNFa and IL 12p40) in supernatant; read-out: TLR-8 EC50
Sequence (Q9NR97 27-1041): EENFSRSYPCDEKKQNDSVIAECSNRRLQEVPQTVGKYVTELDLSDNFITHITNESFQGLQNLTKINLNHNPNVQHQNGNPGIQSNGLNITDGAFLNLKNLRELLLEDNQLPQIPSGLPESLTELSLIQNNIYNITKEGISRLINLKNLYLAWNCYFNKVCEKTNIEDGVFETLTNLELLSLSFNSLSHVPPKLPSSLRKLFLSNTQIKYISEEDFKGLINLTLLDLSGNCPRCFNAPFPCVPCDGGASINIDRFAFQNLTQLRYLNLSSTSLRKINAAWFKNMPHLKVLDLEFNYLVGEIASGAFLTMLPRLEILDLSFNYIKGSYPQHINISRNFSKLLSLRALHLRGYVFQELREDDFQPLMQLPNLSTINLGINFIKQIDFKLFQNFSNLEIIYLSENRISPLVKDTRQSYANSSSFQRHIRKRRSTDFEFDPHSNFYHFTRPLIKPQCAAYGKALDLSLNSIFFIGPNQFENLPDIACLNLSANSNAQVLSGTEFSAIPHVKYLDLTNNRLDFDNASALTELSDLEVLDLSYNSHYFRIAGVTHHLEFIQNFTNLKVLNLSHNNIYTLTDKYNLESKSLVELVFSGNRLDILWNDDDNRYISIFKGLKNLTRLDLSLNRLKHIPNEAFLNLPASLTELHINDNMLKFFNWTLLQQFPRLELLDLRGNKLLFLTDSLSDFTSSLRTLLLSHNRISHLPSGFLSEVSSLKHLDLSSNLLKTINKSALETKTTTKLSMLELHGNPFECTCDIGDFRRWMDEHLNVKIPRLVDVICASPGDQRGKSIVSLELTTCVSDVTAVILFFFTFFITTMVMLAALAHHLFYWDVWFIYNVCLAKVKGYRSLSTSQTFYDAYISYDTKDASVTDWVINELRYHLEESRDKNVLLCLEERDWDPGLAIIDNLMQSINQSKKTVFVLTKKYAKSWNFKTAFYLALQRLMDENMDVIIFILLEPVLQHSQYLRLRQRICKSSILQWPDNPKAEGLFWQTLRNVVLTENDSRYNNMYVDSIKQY
pEC50: −log10 of the molar value.
result_type: pEC50

Please review the entries below; each comes with its answer.
> print(dat)
                                   molecule  result.type  endpoint.value
1  Cc1cc(-c2[nH]c3cc(C(=O)N(C)C4CCC(N5CC(OC(F)(F)F)C5)CC4)sc3c2C(C)C)cn2ncnc12 (stereo not shown) [Example 251]        pEC50            6.98
2  Cc1cc(-c2[nH]c3cc(C4CCNCC4(C)C)sc3c2C(C)C)cn2ncnc12 (stereo not shown) [Example 293]        pEC50            8.25
3  Cc1cc(-c2[nH]c3cc([C@@H]4C[C@H]5CC[C@@H](C4)N5)sc3c2C(C)C)cn2ncnc12 [Example 307]        pEC50            8.13

(a) Cc1cc(-c2[nH]c3cc(C(=O)N4CCN[C@@H](CO)C4)sc3c2C(C)C)cn2ncnc12 [Example 122]
(b) Cc1cc(-c2[nH]c3cc(C(=O)N(C)CC4CCNCC4)sc3c2C(C)C)cn2ncnc12 [Example 113]
(c) Cc1cc(-c2[nH]c3cc(-c4nc5ccncc5[nH]4)sc3c2C(C)C)cn2ncnc12 [Example 236]
(d) Cc1cc(-c2[nH]c3cc(C4CCC5(C4)CN(CC(N)=O)C5)sc3c2C(C)C)cn2ncnc12 (racemic) [Example 295]
Please put the entries in order of rising pEC50. Your answer should be the labels, listed in the requested order.
b, c, a, d

---

target: TLR7 (Homo sapiens); construct: Human peripheral blood mononuclear cells (PBMCs) consist of lymphocytes, monocytes and dendritic cells that express TLR7, TLR8 and TLR9; endogenous in cells; assay: TLR7 human PBMC cell-based assay (antagonist, GS-986 stimulated cytokine release); settings: human PBMCs; TLR7 agonist GS-986 400 nM, 6 hours; cytokines (IL-6 and IFNα) in supernatant; read-out: TLR-7 EC50
Sequence (Q9NYK1 27-1049): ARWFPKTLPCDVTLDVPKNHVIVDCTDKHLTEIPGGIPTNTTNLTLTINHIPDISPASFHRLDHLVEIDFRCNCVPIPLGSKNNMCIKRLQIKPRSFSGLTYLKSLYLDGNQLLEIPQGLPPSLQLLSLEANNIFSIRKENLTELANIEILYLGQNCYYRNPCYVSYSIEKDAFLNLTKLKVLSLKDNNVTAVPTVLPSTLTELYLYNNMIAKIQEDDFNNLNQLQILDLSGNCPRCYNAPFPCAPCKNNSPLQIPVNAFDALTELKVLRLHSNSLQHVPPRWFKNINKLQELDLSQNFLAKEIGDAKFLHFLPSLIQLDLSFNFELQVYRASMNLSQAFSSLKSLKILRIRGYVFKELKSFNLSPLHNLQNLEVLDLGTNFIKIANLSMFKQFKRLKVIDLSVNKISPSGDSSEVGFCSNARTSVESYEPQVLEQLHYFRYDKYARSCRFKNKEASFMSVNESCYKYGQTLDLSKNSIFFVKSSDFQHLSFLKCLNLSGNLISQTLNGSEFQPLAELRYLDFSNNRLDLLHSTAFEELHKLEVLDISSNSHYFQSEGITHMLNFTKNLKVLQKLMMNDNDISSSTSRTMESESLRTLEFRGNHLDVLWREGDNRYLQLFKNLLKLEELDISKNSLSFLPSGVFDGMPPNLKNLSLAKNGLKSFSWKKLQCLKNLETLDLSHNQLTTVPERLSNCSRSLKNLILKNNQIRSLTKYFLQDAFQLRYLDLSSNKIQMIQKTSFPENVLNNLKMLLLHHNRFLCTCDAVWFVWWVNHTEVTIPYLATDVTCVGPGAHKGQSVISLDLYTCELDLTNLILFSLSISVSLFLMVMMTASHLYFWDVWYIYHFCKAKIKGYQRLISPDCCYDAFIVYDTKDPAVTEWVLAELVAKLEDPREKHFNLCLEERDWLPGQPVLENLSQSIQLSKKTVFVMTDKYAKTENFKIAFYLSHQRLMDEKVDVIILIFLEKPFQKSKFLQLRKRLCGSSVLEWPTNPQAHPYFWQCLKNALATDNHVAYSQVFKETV
pEC50: −log10 of the molar value.
result_type: pEC50

Please review the entries below; each comes with its answer.
> print(dat)
                                   compound  result.type  endpoint.value
1  Cc1c(-c2[nH]c3cc(C4CCN(CC(N)=O)CC4)sc3c2C(C)C)cn2ncnc2c1C [Example 279]        pEC50            8.56
2  Cc1cc(-c2[nH]c3cc(C(=O)N(C4CCC4)C4CCNCC4)sc3c2C(C)C)cn2ncnc12 [Example 84]        pEC50            8.96
3  Cc1cc(-c2[nH]c3cc(C(=O)N4CCNC(=O)C4)sc3c2C(C)C)cn2ncnc12 [Example 40]        pEC50            7.75
4  Cc1cc(-c2[nH]c3cc(C(=O)N(C)C4CCC(N5CCC(F)(F)C5)CC4)sc3c2C(C)C)cn2ncnc12 (stereo not drawn) [Example 254]        pEC50            7.46
5  Cc1cc(-c2[nH]c3cc(C4CC5CCCC(C4)N5)sc3c2C(C)C)cn2ncnc12 (stereo not drawn) [Example 297]        pEC50            8.56
6  Cc1cc(-c2[nH]c3cc(C(=O)N(C)[C@@H]4CNC[C@H](C(F)(F)F)C4)sc3c2C(C)C)cn2ncnc12 [Example 276]        pEC50            8.57
7  COc1cc(-c2[nH]c3cc(-c4cnc5c(c4)CNCC5)sc3c2C(C)C)cn2ncnc12 [Example 224]        pEC50            9.40
8  Cc1cc(-c2[nH]c3cc(C4CC5CN(CC(N)=O)CC5C4)sc3c2C(C)C)cn2ncnc12 (stereo not drawn) [Example 289]        pEC50            9.72

(1) Cc1cc(-c2[nH]c3cc(-c4cccc5c4CCNC5)sc3c2C(C)C)cn2ncnc12 [Example 225]
(2) Cc1cc(-c2[nH]c3cc(C4CCN(Cc5ccn(C)n5)CC4)sc3c2C(C)C)cn2ncnc12 [Example 194]
When the recorded pEC50 values are compared, which is smaller: that of 1 or that of 2 ? Return value: the label identifying the chosen record.
1
